Reference for the values: paper PMC8426418

details: female, human, urine and plasma, oral, CLR (renal clearance), third trimester (T3), n=5; geometric mean [range]

>  <compound>
CC(NC(C)(C)C)C(=O)c1cccc(Cl)c1 (stereo not shown) [BUP, Bupropion, reference compound]

>  <CL renal [mL/min]>
30

$$$$

---

Listing of recorded CLR (renal clearance) by entry.
details: second trimester (T2), n=5; geometric mean [range]

>  <molecule>
C[C@H](NC(C)(C)C)[C@@H](O)c1cccc(Cl)c1 [Threo, threohydrobupropion]

>  <CLR (renal clearance)>
3.9 [1.7–8.6] L/h

$$$$
>  <molecule>
C[C@H]1NC(C)(C)CO[C@]1(O)c1cccc(Cl)c1 [OH-BUP, hydroxybupropion]

>  <CLR (renal clearance)>
0.20 [0.11–0.36] L/h

$$$$
>  <molecule>
CC(NC(C)(C)C)C(O)c1cccc(Cl)c1 (stereo not drawn) [Erythro, erythrohydrobupropion]

>  <CLR (renal clearance)>
2.1 [0.91–4.4] L/h

$$$$
>  <molecule>
C[C@@H]1NC(C)(C)CO[C@@]1(O)c1cccc(Cl)c1

>  <CLR (renal clearance)>
0.93 [0.31–3.4] L/h

$$$$
>  <molecule>
C[C@H]1NC(C)(C)CO[C@]1(O)c1cccc(Cl)c1 [R,R-OH-BUP]

>  <CLR (renal clearance)>
0.15 [0.07–0.32] L/h

$$$$

---

Listing of recorded metabolite/BUP steady-state concentration ratio by entry.
procedure.summary: Steady-state plasma concentrations of BUP and metabolites in pregnancy
details: third trimester (T3), n=5; geometric mean [range]
measured.endpoint: metabolite/BUP steady-state concentration ratio

>  <molecule>
C[C@H]1NC(C)(C)CO[C@]1(O)c1cccc(Cl)c1

>  <measurement>
33.7 [13.5–99.1]

$$$$
>  <molecule>
C[C@@H]1NC(C)(C)CO[C@@]1(O)c1cccc(Cl)c1

>  <measurement>
1.9 [0.9–8.7]

$$$$
>  <molecule>
CC(NC(C)(C)C)C(O)c1cccc(Cl)c1 (stereo not drawn) [Erythro, erythrohydrobupropion]

>  <measurement>
1.4 [0.6–2.7]

$$$$
>  <molecule>
C[C@H](NC(C)(C)C)[C@@H](O)c1cccc(Cl)c1 [Threo, threohydrobupropion]

>  <measurement>
11.2 [5.6–16.6]

$$$$

---

details: third trimester (T3), n=5; geometric mean [range]

>  <compound>
C[C@H]1NC(C)(C)CO[C@]1(O)c1cccc(Cl)c1 [OH-BUP, hydroxybupropion]

>  <CLR (renal clearance)>
0.08 [0.04–0.12] L/h

$$$$
>  <compound>
C[C@H](NC(C)(C)C)[C@@H](O)c1cccc(Cl)c1 [Threo, threohydrobupropion]

>  <CLR (renal clearance)>
2.0 [1.1–2.8] L/h

$$$$
>  <compound>
CC(NC(C)(C)C)C(O)c1cccc(Cl)c1 (stereo not drawn) [Erythro, erythrohydrobupropion]

>  <CLR (renal clearance)>
1.2 [0.74–1.7] L/h

$$$$
>  <compound>
C[C@H]1NC(C)(C)CO[C@]1(O)c1cccc(Cl)c1 [R,R-OH-BUP]

>  <CLR (renal clearance)>
0.07 [0.05–0.09] L/h

$$$$
>  <compound>
C[C@@H]1NC(C)(C)CO[C@@]1(O)c1cccc(Cl)c1 [S,S-OH-BUP]

>  <CLR (renal clearance)>
0.40 [0.24–0.72] L/h

$$$$
